Listing: protein stability index of selected variants
B1: TTC32 (parent)
chain: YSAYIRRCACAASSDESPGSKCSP

Variants of: B1
measurement-protocol: protein stability index of a GFP-peptide fusion (GPS, HEK-293T) (PSI 1-6); higher = more stable;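 further: lentivirally expressed fusions sorted by FACS into six bins by GFP to DsRed ratio, PSI derived from sequencing read proportions per bin multiplied by bin number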
experimental-setup: c terminus: a fixed tail appended
Lab note: record just the number, no unit beside it.

Here are 3 variants together with their reported answers.
C10A	3.13
S13K	2.28
S2W	1.91

Query: Endpoint output: protein stability index of C22N . Value?
Reply: 2.28

Query: Endpoint output: protein stability index of D15R . Value?
Reply: 1.85
